Tested on: DMS-273
test-method-notes: NCI tumour cell line growth inhibition, 48 h
Activity calls are given as the source filed them. No stated cut-off is given here; in the data, active = GI50 up to about 1.1 µM and inactive = higher.
Outcomes: 1 (active), -1 (inactive)

>>> classification("O=C(O)CCC1CCc2cccc(OCC(=O)O)c2C1=O (stereo unspecified)")
-1
>>> classification("N/C(S)=N/N=C/c1ccc(O)cn1")
-1
>>> classification("Cn1cc(C(=O)c2ccccc2)ccc1=O")
-1
>>> classification("CC(C)N(C(=O)C12C3C4C1C1C2C3C41C#N)C(C)C (stereo unspecified)")
-1
>>> classification("COC(=O)c1onc(-c2c(OC)cc(OC)cc2OC)c1C(=O)OC")
-1
>>> classification("COC(=O)C1C=NNC1C(=O)OC (stereo unspecified)")
-1
>>> classification("CCCCC/C=C1\\CCC(CN(C)C)C1=O (stereo unspecified)")
-1
>>> classification("C/C=C/C=N/N(c1nnc(-c2ccccc2)c(-c2ccccc2)n1)S(=O)(=O)c1ccc(C)cc1")
-1
>>> classification("C/C=C/C=N/N(C(=O)c1cc([N+](=O)[O-])cc([N+](=O)[O-])c1)C1=NN=C(c2ccccc2)C(c2ccccc2)N1 (stereo unspecified)")
-1
>>> classification("C=C1CC(c2ccc(O)c(OC)c2)Oc2c(OC)cccc21 (stereo unspecified)")
-1
>>> classification("C(/C=C/N1CCCC1)=C\\c1nc(N2CCCC2)c2ccccc2n1")
-1
>>> classification("COc1ccc(C2(Cl)C(Cl)(C(F)(F)F)C2(Cl)C(F)(F)F)cc1 (stereo unspecified)")
-1
>>> classification("CC(=O)Nc1ccc(/C=c2\\sc3nnc(-c4cccnc4)n3c2=O)cc1")
-1
>>> classification("O=C(/C=C/c1ccccc1)c1ccc(Cl)cc1Cl")
-1
>>> classification("CCCCCCCCCC/C=C/C=O")
-1
>>> classification("O=C(/C=C/c1ccccc1O)c1cccnc1")
-1
>>> classification("O=C1O[C@H](C(Cl)(Cl)Cl)N2CCCC12 (stereo partly specified)")
-1
>>> classification("O=C(O)CCC1CCc2cccc3occ1c23 (stereo unspecified)")
-1
>>> classification("CCC1(OC(=O)CNC)C(=O)OCc2c1cc1n(c2=O)Cc2cc3ccccc3nc2-1 (stereo unspecified)")
1
>>> classification("C=CCCCCn1c2ccccc2c2c(C)c3cnccc3c(C)c21")
-1
>>> classification("O=C(/C=C/c1c(O)ccc2ccccc12)c1ccccc1")
-1
>>> classification("Cn1c2c(c3ccccc31)CCN(CCCCN1CCN(c3cccc(Cl)c3)CC1)C2=O")
-1
>>> classification("COc1ccc(/C=C/C(=O)c2c(-c3ccccc3)nn(C)c(=O)c2N2CCCCC2)cc1")
-1
>>> classification("Cc1ccc(C2NC(=O)c3ccccc3N2)s1 (stereo unspecified)")
-1
>>> classification("Cc1cccc(C)c1NC(=O)CCCC(=O)C1/C(=N/NC(=O)CC#N)CCC/C1=N\\NC(=O)CC#N (stereo unspecified)")
-1
>>> classification("CCOC(=O)CC1=N/C(=N/c2cc(Cl)ccc2Cl)SC1")
-1
>>> classification("CC(C)=CCCc1c(C)ccc2c1C(=O)C(=O)C(C(C)C)=C2")
-1
>>> classification("O=C(O)CSc1nnc(-c2ccccc2)[nH]1")
-1
>>> classification("Cc1noc(C)c1CCCOC1COc2ccccc2OCCOCCOc2ccccc2OC1")
-1
>>> classification("C=C(C)C1CC[C@]2(C(=O)O)CCC3(C)[C@H](CCC4[C@@]5(C)CC[C@H](OC6OC(CO)C(O)C6OC6OC(C)C(O)C(O)C6O)[C@@](C)(CO)C5CC[C@]43C)C12 (stereo partly specified)")
-1
>>> classification("Cc1cc2c(c(N)c1C)C(=O)c1ccccc1C2=O")
-1

----------
System: ACHN
test-method-notes: NCI tumour cell line growth inhibition, 48 h
Calls of active or inactive are those of the source. Rule as the data show it: active = GI50 up to about 1.1 µM and inactive = higher.
property-measured: GI50

>>> reported_measurement("Cn1c(-c2cccc(N)c2)[n+](C)c2ccccc21")
"> 100 µM (inactive)"
>>> reported_measurement("CCC(C)OC(=O)/C(Br)=C1/OC(=O)c2ccccc2-c2ccccc21 (stereo unspecified)")
"40.1 µM (inactive)"
>>> reported_measurement("C1CC2=C(C1)C1=S(S2)SC2=C1CCC2")
"45.7 µM (inactive)"
>>> reported_measurement("OC(c1ccoc1)c1cc2ccccc2s1 (stereo unspecified)")
"> 10 µM (inactive)"
>>> reported_measurement("Cc1cc2c(c(N)c1C)C(=O)c1ccccc1C2=O")
"14.1 µM (inactive)"
>>> reported_measurement("CC(C)CCNC(=O)c1ccc(CNC(=O)/C=C/c2ccc(OCc3ccccc3)cc2)cc1")
"> 100 µM (inactive)"

----------
System: K562
test-method-notes: NCI tumour cell line growth inhibition, 48 h
The source made the active and inactive calls. Rule as the data show it: active = GI50 up to about 1.1 µM and inactive = higher.
Reported GI50 values for the following compounds.
property-measured: GI50

>>> reported_measurement("Oc1c(CN2CCOCC2)ccc2cccnc12")
"4.4 µM (inactive)"
>>> reported_measurement("CCN(CC)CCc1c2c(nc3ccccc13)C(=O)c1cccnc1C2=O")
"1.16 µM (inactive)"
>>> reported_measurement("CC(C)=CCc1ccc2[nH]c3c(c2c1)C(=O)C(=O)C(C)=C3C(O)C(C)O (configuration not stated)")
"2.07 µM (inactive)"
>>> reported_measurement("CCCC1=NC(C(F)(F)F)(C(F)(F)F)N=C(N2CCOCC2)O1")
"> 100 µM (inactive)"
>>> reported_measurement("C1CC2=C(C1)C1=S(S2)SC2=C1CCC2")
"> 100 µM (inactive)"
>>> reported_measurement("COc1ccc(C2=C3c4cc(OC)c(OC)cc4CCN3C(=S)SS2)cc1OC")
"71 µM (inactive)"
>>> reported_measurement("COC(=O)[C@@H](NC(=O)N(Cc1ccccc1)C[C@H](CC(C)C)NC(=O)[C@@H](NC(=O)OC(C)(C)C)C(C)C)C(C)C")
"> 100 µM (inactive)"

----------
Tested on: RPMI-8226
test-method-notes: NCI tumour cell line growth inhibition, 48 h
Active and inactive are the calls of the source. Cut-off read from the data, not from the text of the source: active = GI50 up to about 1.1 µM and inactive = higher.
Outcomes: y = active, n = inactive

>>> classification("Cc1ccc(NC(=O)C(=O)C2C(=O)NC(=O)NC2=O)cc1C")
"n"
>>> classification("CC1=NN(c2nc(N)nc(CN3CCOCC3)n2)C(C)(C)C1")
"n"
>>> classification("CSC1=C(C(=O)N(COCC[Si](C)(C)C)c2ccccc2Br)CCC(C(C)(C)C)C1 (stereo not given)")
"n"
>>> classification("CN(C(=O)C1CC1)C1C2CN3CCC(O2)C13 (stereo not given)")
"n"
>>> classification("CCN(CC)CCc1c2c(nc3ccccc13)C(=O)c1cccnc1C2=O")
"n"
>>> classification("O=C1c2ccccc2CC12Cc1cc3c(cc1C2=O)CCC3 (stereo not given)")
"n"
>>> classification("COC(=O)NC1C(C)OC(OC2C/C=C(/C)C3C=CC4C(OC5CC(OC6CCC(OC7CC(O)C(OC8CCC(O)C(C)O8)C(C)O7)C(C)O6)C(OC(C)=O)C(C)O5)C(C)CC(C)C4C3(C)/C(O)=C3/C(=O)OC4(CC(C=O)=CC(O)C4/C=C\\2C)C3=O)CC1(C)[N+](=O)[O-] (stereo not given)")
"y"
>>> classification("CN(C)c1nc(N)nc(CS)n1")
"n"
>>> classification("Nc1ncc(Cc2nc3ccccc3s2)s1")
"n"
>>> classification("N=C(N)NC(=N)Nc1ccc(S(N)(=O)=O)cc1")
"n"

----------
System: OVCAR-4
test-method-notes: NCI tumour cell line growth inhibition, 48 h
Calls of active or inactive are those of the source. No stated cut-off is given here; in the data, active = GI50 up to about 1.1 µM and inactive = higher.
Outcomes: active, inactive

>>> classification("COC(=O)NC1C(C)OC(OC2C/C=C(/C)C3C=CC4C(OC5CC(OC6CCC(OC7CC(O)C(OC8CCC(O)C(C)O8)C(C)O7)C(C)O6)C(OC(C)=O)C(C)O5)C(C)CC(C)C4C3(C)/C(O)=C3/C(=O)OC4(CC(C=O)=CC(O)C4/C=C\\2C)C3=O)CC1(C)[N+](=O)[O-] (stereo not drawn)")
"inactive"
>>> classification("O=C1c2ccccc2CC12Cc1cc3c(cc1C2=O)CCC3 (stereo not drawn)")
"inactive"
>>> classification("CCc1cccc(C)c1NC(=O)CC1Sc2ccccc2NC1=O (stereo not drawn)")
"inactive"
>>> classification("S=C(NCCc1ccccn1)N/N=C(\\c1ccccc1)c1ccccn1")
"inactive"
>>> classification("CC1=C2O[C@]3(O)C=C2C(=C(O)C1=O)[C@@H]1O[C@H](CC[C@H](C)/C=C(\\C)C[C@@H](C)C[C@@H]3C)[C@H](C)[C@H](O)[C@H]1C [KENDOMYCIN]")
"active"
>>> classification("CO/C(N)=C(C#N)/N=C/c1cccnc1")
"inactive"
>>> classification("O=C(O)CSc1nnc(-c2ccccc2)[nH]1")
"inactive"
>>> classification("CCCCCCC1CC(=O)C1(Cl)Cl (stereo not drawn)")
"inactive"
